Hey, just so you know, these numbers are from ChEMBL document CHEMBL4219074.

tested on: HeLa; test: Cytotoxicity against human HeLa cells by CCK8 assay; format: functional, cell-based
Each record here notes measured pIC50.
By convention, pIC50 is the negative base-10 log of a molar concentration.

# example entries with known answers
C[C@@H]1C[C@H](C)C[C@H](C)[C@@H](O)CC(=O)O[C@@H]([C@@H]2CCC[C@H]2C(=O)O)C/C=C/C=C(/C#N)[C@H](O)[C@@H](C)C1
5.66
C[C@@H]1C[C@H](C)C[C@H](C)[C@@H](O)CC(=O)O[C@@H]([C@@H]2CCC[C@H]2C(=O)O)C/C=C/C=C(/C#N)[C@@H](O)[C@@H](C)C1
4.93

Looking up `C[C@@H]1C[C@H](C)C[C@H](C)[C@@H](O)CC(=O)O[C@@H]([C@@H]2CCC[C@H]2C(=O)O)C/C=C\C=C(/C#N)[C@H](O)[C@@H](C)C1` , I see its pIC50 listed as 4.82

Looking up `C[C@@H]1C[C@H](C)C[C@H](C)[C@@H](O)CC(=O)O[C@@H]([C@@H]2CCC[C@H]2C(=O)O)C/C=C\C=C(/C#N)[C@@H](O)[C@@H](C)C1` , I see its pIC50 listed as 5.89

----------
tested on: A549; assay: Cytotoxicity against human A549 cells by CCK8 assay; assay type: functional, cell-based
pIC50: −log10 of the molar value.
satisfied means recorded pIC50 is 5 or above; not satisfied means it is below 5.

The examples below pair each entry with its known result.
COc1cccc2c1C(=O)c1c(O)c3c(c(O)c1C2=O)C[C@@](O)(C(=O)CO)C[C@@H]3O[C@H]1C[C@H](N)[C@H](O)[C@H](C)O1
satisfied
C[C@@H]1C[C@H](C)C[C@H](C)[C@@H](O)CC(=O)O[C@@H]([C@@H]2CCC[C@H]2C(=O)O)C/C=C\C=C(/C#N)[C@@H](O)[C@@H](C)C1
satisfied
CC(=O)NC/C1=C/C=C/C[C@H]([C@@H]2CCC[C@H]2C(=O)O)OC(=O)C[C@H](O)[C@@H](C)C[C@@H](C)C[C@@H](C)C[C@H](C)[C@@H]1O
not satisfied

Exercise: Please check the record `C[C@@H]1C[C@H](C)C[C@H](C)[C@@H](O)CC(=O)O[C@@H]([C@@H]2CCC[C@H]2C(=O)O)C/C=C\C=C(/C#N)[C@H](O)[C@@H](C)C1` and state if its pIC50 is at or above 5.
Key: not satisfied

Exercise: Please check the record `C[C@@H]1C[C@H](C)C[C@H](C)[C@@H](O)CC(=O)O[C@@H]([C@@H]2CCC[C@H]2C(=O)O)C/C=C/C=C(/C#N)[C@H](O)[C@@H](C)C1` and state if its pIC50 is at or above 5.
Key: satisfied
